Biological target: T1, Spy_(29-138) (UniProt P77754 52-161)
T1 construct: source: E. coli BL21 (DE3), purified (Ni-NTA, cation exchange, SEC); not shown: His6, N-terminal, cleaved; SUMO, N-terminal, cleaved
T1 sequence (looked up): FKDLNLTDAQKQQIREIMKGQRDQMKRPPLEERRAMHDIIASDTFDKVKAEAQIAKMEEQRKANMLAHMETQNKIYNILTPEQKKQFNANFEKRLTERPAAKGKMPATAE
Experiment: BLI; Octet RED96; client biotinylated and loaded on streptavidin sensors; Spy or Spy variant in solution at 0.25, 0.5, 1, 1.5 and 2 μM; 40 mM HEPES, 150 mM NaCl, pH 7.5; Kd calculated as koff/kon
Settings: both partners purified
metric name: Kd (nM)
Give bare numbers, in nM.

INSERT INTO assay_data (binder, result_unit, reported) VALUES
  ('Im7 wild type (natural protein, biotin (EZ-link NHS-biotin, 1:1 molar ratio of biotin to protein), Im7 (colicin E7 immunity protein), wild type; also called Im7 WT; Im7WT; source: purified by a similar procedure to Spy) MELKNSISDYTEAEFVQLLKEIEKENVAATDDVLDVLLEHFVKITEHPDGTDLIYYPSDNRDDSPEGIVKEIKEWRAANGKPGFKQG', 'nM', 270);

Proceed to the following item.
Name the reported Kd value associated with the binder Im7 L18A L19A L37A (natural protein, biotin (EZ-link NHS-biotin, 1:1 molar ratio of biotin to protein), Im7 (colicin E7 immunity protein) with L18A L19A L37A; also called Im7A3; unfolded client; source: purified by a similar procedure to Spy) MELKNSISDYTEAEFVQAAKEIEKENVAATDDVLDVALEHFVKITEHPDGTDLIYYPSDNRDDSPEGIVKEIKEWRAANGKPGFKQG
340
